target: T1, Anti-PSMA Fab (SEQ ID NOs: 19, 20); experiment: phage binding ELISA, clonal phage on plate-captured biotinylated PSMA Fab
T1 construct: Biotinylated and captured on neutravidin coated plates in the phage ELISA; also called 006 PSMA Fab
Where no end group is shown, it is not given here.
Anti-PSMA Fab (SEQ ID NOs: 19, 20) signal values, listed per item
Measurement Kind: Anti-PSMA Fab (SEQ ID NOs: 19, 20) signal

Binder	Reported Result
LFKVCTPSWMCSGF [Phage-2225]	1.58
TEKWCIPQWMCEAT (cysteine pairing not given here; also: displayed on phage, fused to pIII, Peptide-180 library clone, tested as clonal phage (peptide fused to the pIII filament of the bacteriophage)) [Phage-2222]	1.58
VSAWCIPPWMCGTN [Phage-2237]	1.56
